Parameter 'readout' = pIC50; parameter 'system' = Acetylcholinesterase (Rattus norvegicus, UniProt P37136).
Sequence (P37136 whole entry): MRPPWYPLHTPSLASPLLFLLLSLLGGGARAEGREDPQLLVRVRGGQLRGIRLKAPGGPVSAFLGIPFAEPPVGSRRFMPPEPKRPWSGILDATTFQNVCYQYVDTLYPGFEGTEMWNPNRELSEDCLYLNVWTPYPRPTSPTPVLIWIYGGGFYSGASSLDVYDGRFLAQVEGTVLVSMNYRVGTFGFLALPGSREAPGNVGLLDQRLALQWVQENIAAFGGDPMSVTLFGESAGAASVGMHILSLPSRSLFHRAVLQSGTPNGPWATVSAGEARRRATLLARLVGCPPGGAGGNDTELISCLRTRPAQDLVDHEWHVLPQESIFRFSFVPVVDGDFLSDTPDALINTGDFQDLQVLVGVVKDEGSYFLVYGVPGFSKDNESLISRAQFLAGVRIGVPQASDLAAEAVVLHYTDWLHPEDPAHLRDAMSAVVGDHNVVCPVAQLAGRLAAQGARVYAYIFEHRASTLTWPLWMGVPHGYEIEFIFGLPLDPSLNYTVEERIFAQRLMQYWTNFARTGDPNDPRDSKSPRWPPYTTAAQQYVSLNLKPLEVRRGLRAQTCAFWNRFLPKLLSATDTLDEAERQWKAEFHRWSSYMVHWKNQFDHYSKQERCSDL
A value of pIC50 is the negative decimal logarithm of a concentration given in moles per litre.

{"compound": "CCN(CC)C(C)c1cccc(OC2Cc3cc(OC)c(OC)cc3C2=O)c1 (stereo not given)", "pIC50": 5.87}
{"compound": "COc1cc2c(cc1OC)C(=O)C(Oc1cccc(C(C)N3CCN(C)CC3)c1)C2 (stereo not given)", "pIC50": 4.75}
{"compound": "COc1cc2c(cc1OC)C(=O)C(Oc1ccc(C(C)N3CCN(C)CC3)cc1)C2 (stereo not given)", "pIC50": 5.53}
{"compound": "COc1cc2c(cc1OC)C(=O)C(Oc1ccc(CN3CCOCC3)cc1)C2 (stereo not given)", "pIC50": 5.89}

In the following, a different compound is considered.
[Q] For Acetylcholinesterase (Rattus norvegicus, UniProt P37136), provide pIC50 of COc1cc2c(cc1OC)C(=O)C(Oc1cccc(C(C)N3CCCC3)c1)C2 (stereo not given) please.
[A] 5.71

----------
# tested-on: Butyrylcholinesterase (Rattus norvegicus, UniProt Q9JKC1)
# Sequence (Q9JKC1 whole entry): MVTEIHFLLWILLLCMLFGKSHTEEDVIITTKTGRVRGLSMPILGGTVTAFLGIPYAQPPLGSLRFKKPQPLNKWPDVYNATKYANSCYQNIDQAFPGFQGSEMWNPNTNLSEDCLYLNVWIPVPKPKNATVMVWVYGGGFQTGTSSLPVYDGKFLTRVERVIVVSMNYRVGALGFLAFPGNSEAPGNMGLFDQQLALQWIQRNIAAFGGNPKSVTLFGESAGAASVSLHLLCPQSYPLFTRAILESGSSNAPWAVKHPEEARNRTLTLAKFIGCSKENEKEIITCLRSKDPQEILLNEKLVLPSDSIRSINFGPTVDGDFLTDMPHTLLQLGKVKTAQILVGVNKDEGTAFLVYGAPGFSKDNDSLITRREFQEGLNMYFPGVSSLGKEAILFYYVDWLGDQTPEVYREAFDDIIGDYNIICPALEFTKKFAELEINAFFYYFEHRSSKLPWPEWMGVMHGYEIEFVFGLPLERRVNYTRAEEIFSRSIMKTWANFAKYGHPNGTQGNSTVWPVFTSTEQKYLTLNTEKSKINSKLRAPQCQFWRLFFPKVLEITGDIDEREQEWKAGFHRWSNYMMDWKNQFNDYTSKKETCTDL
# assay-remarks: In vitro inhibitory concentration against butyrylcholinesterase was determined using rat serum homogenate
quantity-name: pIC50
A value of pIC50 is the negative decimal logarithm of a concentration given in moles per litre.

Example compounds with recorded pIC50:
{"compound": "COc1cc2c(cc1OC)C(=O)C(Oc1ccc(C(C)N3CCOCC3)cc1)C2 (stereo not given)", "pIC50": 3.46}
{"compound": "COc1cc2c(cc1OC)C(=O)C(Oc1ccc(C(C)N(C)C)cc1)C2 (stereo not given)", "pIC50": 2.86}

[Q] For Butyrylcholinesterase (Rattus norvegicus, UniProt Q9JKC1), provide pIC50 of COc1cc2c(cc1OC)C(=O)C(Oc1cccc(C(C)N(C)C)c1)C2 (stereo not given) please.
[A] 3.54

[Q] For Butyrylcholinesterase (Rattus norvegicus, UniProt Q9JKC1), provide pIC50 of CCN(CC)Cc1ccc(OC2Cc3cc(OC)c(OC)cc3C2=O)cc1 (stereo not given) please.
[A] 3.60

[Q] For Butyrylcholinesterase (Rattus norvegicus, UniProt Q9JKC1), provide pIC50 of COc1cc2c(cc1OC)C(=O)C(Oc1ccc(C(C)N3CCN(C)CC3)cc1)C2 (stereo not given) please.
[A] 3.41

[Q] For Butyrylcholinesterase (Rattus norvegicus, UniProt Q9JKC1), provide pIC50 of COc1cc2c(cc1OC)C(=O)C(Oc1cccc(CN(C)C)c1)C2 (stereo not given) please.
[A] 3.68

[Q] For Butyrylcholinesterase (Rattus norvegicus, UniProt Q9JKC1), provide pIC50 of COc1cc2c(cc1OC)C(=O)C(Oc1cccc(CN3CCOCC3)c1)C2 (stereo not given) please.
[A] 3.66

[Q] For Butyrylcholinesterase (Rattus norvegicus, UniProt Q9JKC1), provide pIC50 of COc1cc2c(cc1OC)C(=O)C(Oc1ccc(CN3CCCCC3)cc1)C2 (stereo not given) please.
[A] 3.58

[Q] For Butyrylcholinesterase (Rattus norvegicus, UniProt Q9JKC1), provide pIC50 of CCN(CC)C(C)c1cccc(OC2Cc3cc(OC)c(OC)cc3C2=O)c1 (stereo not given) please.
[A] 3.70

[Q] For Butyrylcholinesterase (Rattus norvegicus, UniProt Q9JKC1), provide pIC50 of COc1cc2c(cc1OC)C(=O)C(Oc1ccc(CN3CCN(C)CC3)cc1)C2 (stereo not given) please.
[A] 3.46
